- Tested on: RAW264.7
- Experiment: Cytotoxicity against mouse RAW264.7 cells assessed as inhibition of cell viability after 18 hrs by MTS assay; further: test concentration or dose not given here
- Type: cell-based
- Test parameters: raw264.7, 18 h

{"columns": ["Molecule", "Measured on", "Activity"],
 "data": [
  ["C=C1C(=O)[C@@]23CC(=O)[C@@H]4C(C)(C)[C@@H](OC(C)=O)CC[C@@]4(C)[C@@H]2[C@@H](O)[C@H](O)[C@@H]1C3 [TENUIFOLIN J]", "RAW264.7", "Non-toxic"],
  ["C=C1C(=O)[C@@]23CC(=O)[C@@H]4C(C)(C)[C@@H](O)C[C@H](O)[C@@]4(C)[C@@H]2[C@@H](OC(C)=O)C[C@@H]1C3 [TENUIFOLIN I]", "RAW264.7", "Non-toxic"],
  ["C=C1[C@@H]2C[C@H](OC(C)=O)[C@@H]3[C@@](CC(=O)[C@@H]4C(C)(C)[C@@H](O)C[C@H](O)[C@]43C)(C2)[C@@H]1O [TENUIFOLIN G]", "RAW264.7", "Non-toxic"]
]}

Origin of measurements: ChEMBL document CHEMBL2331327
